# Test system: Hek293T
# assay notes: Primary qHTS to identify gynecologic anti-cancer compounds using libraries of approved drugs and bioactive compounds (AID 1345084); further: nearly all actives have a fitted effect of over 55% in size
# test parameters: Gynecologic cancer cell panel viability, ATPlite luminescence, 48 h, control line for the selectivity index; series mostly up to 57.5 µM
Records with an inconclusive call do not appear. Activity calls are given as the source filed them. The call rests on the fitted dose curve; in most records, active means well fitted cell-killing curve with a large enough effect; inconclusive means small, poorly fitted or top-dose-only effect, or effect the other way; inactive means flat fitted curve, though single readings scatter.
Labels: active, inactive

compound | group label
CCOC(=O)Nc1ccc(NCc2ccc(F)cc2)cc1N | inactive
O=C(N[C@@H](COc1ccc2[nH]c(=O)[nH]c2c1)c1ccccc1)c1cccn(Cc2ccc(F)c(F)c2)c1=O | inactive
Cc1c(C(=O)Nc2cccc(C(F)(F)F)c2)cc(-c2ccccc2)n1CCCN1CCOCC1 | inactive
Nc1ccc(Sc2ccc(N)cc2)cc1 | inactive
CO/C=C(/C(=O)OC)c1ccccc1Oc1cc(Oc2ccccc2C#N)ncn1 | active
c1cc2ccc3cccc4ccc(c1)c2c34 | inactive
CC(O)CN1CCN(CC(=O)[O-])CCN(CC(=O)[O-])CCN(CC(=O)[O-])CC1.[Gd+3] (centres undefined) | inactive
Cc1ccc(Cl)c(O)c1 | inactive
CC(C)(C)C(O)C(Oc1ccc(Cl)cc1)n1cncn1 (centres undefined) | inactive
O=C(O)COc1nc(Cl)c(Cl)cc1Cl | inactive
COc1ccc(C(c2ccc(OC)cc2)C(Cl)(Cl)Cl)cc1 | inactive
Nc1ccc(Cl)cc1 | inactive
O=[N+]([O-])c1cc([N+](=O)[O-])c2ccccc2c1 | inactive
CC(=O)Nc1ccc(OC[C@](C)(O)C(=O)Nc2ccc([N+](=O)[O-])c(C(F)(F)F)c2)cc1 | inactive
CC[N+]1(CCOC(=O)C(O)(c2ccccc2)c2ccccc2)CCCCC1 | inactive
CC1(C)CC/C(=C/c2ccc(Cl)cc2)C1(O)Cn1cncn1 (centres undefined) | inactive
CCc1c(C(=O)C(N)=O)c2c(OCC(=O)O)cccc2n1Cc1ccccc1 | inactive
O=C(Oc1ccc([N+](=O)[O-])cc1)N1CCC(C(O)(c2ccc3c(c2)OCO3)c2ccc3c(c2)OCO3)CC1 | inactive
CC(C)NCC(O)c1ccc([N+](=O)[O-])cc1 (centres undefined) | inactive

* * *

# assay notes: Primary qHTS for inhibitors of MERS-S pseudo-typed particle cell entry (AID 1479149); further: nearly all actives have a fitted effect of over 60% in size
# test parameters: MERS-S pseudotyped particle entry, luciferase; series mostly up to 57.1 µM
Inconclusive results are not listed. Active and inactive are the calls of the source. Calls follow the shape of the full dose curve.
Labels: T = active, F = inactive

molecule | group label
CN1[C@@H]2CC[C@H]1CC(OC(=O)C(O)c1ccccc1)C2 (some centres undefined) | F
C[N+](C)(C)CC(=O)O | F
CS(=O)(=O)c1ccc(C(=O)Nc2ccc(Cl)c(-c3ccccn3)c2)c(Cl)c1 | F
Cc1cc(O)ccc1Cl | F
CN(C)CC/C=C1/c2ccccc2COc2ccc(CC(=O)O)cc21 | F
Cc1c(C(=O)Nc2ccc(N3C[C@@H](C)O[C@@H](C)C3)nc2)cccc1-c1ccc(OC(F)(F)F)cc1 | T
Cc1c(C)c2c(c(C)c1OC(=O)c1cccnc1)CC[C@@](C)(CCC[C@H](C)CCC[C@H](C)CCCC(C)C)O2 | F
CC(=O)Oc1cccc(C)c1 | F
CCC(C)(Oc1ccc(C2(c3ccc(OC(C)(CC)C(=O)O)cc3)CCCCC2)cc1)C(=O)O (centres undefined) | F
C=CCNC(N)=S | F
CCCCCCCCCCC(CO)CCCCCCCC (centres undefined) | F
CC(C)CCCC(C)CCCC(C)CCCCC(C)CCCC(C)CCCC(C)C (centres undefined) | F
CN(C(=O)C(Cl)Cl)c1ccc(OC(=O)c2ccco2)cc1 | F
CCc1c(C)[nH]c2c1C(=O)C(CN1CCOCC1)CC2 (centres undefined) | F
CC(C)(C)C(O)/C=C/c1ccc2c(c1)OCO2 (centres undefined) | F
CC(=O)N[C@@H](CCC(N)=O)C(=O)O | F
CC[N+](C)(CC)CCOC(=O)C(O)(c1ccccc1)C1CCCCC1 (centres undefined) | F
O=C(O)CC(O)C(=O)O (centres undefined) | F
CC(C)C[C@H](NC(=O)[C@@H](O)[C@H](N)Cc1ccccc1)C(=O)O | F
CC(=O)Nc1ccc(O)cc1 | F
CC1=NN(c2ccccc2)C(=O)C1 | F
Cc1nnc(C(C)C)n1C1CC2CCC(C1)N2CC[C@H](NC(=O)C1CCC(F)(F)CC1)c1ccccc1 (some centres undefined) | F
CC(=O)N[C@@H](Cc1ccc(O)cc1)C(=O)O | F
CCN1CCN(c2cc3c(cc2F)c(=O)c(C(=O)O)cn3C2CC2)CC1 | F

* * *

# test target: Chromobox protein homolog 1 (Homo sapiens)
# assay notes: qHTS Validation Assay for Inhibitors of HP1-beta Chromodomain Interactions with Methylated Histone Tails (AID 488953);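 further: loss of AlphaScreen luminescence from HP1-beta binding biotinylated H3K9me3 peptide; nearly all actives have a fitted effect of over 50% in size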
# test parameters: HP1-beta chromodomain / methylated histone peptide binding assay; series mostly up to 114 µM
Results filed as inconclusive are left out. Activity calls are given as the source filed them. Calls follow the shape of the dose curve; as a rule, active = well fitted inhibition curve with a large enough effect; inconclusive = small, poorly fitted or top-dose-only effect; inactive = no such curve, though single readings can be large or run the other way.

record smiles | outcome
Cc1nccc2c1[nH]c1ccccc12 | inactive
NC(=NCCC[C@H](N)C(=O)O)N[N+](=O)[O-] | inactive
CCCCc1ccc(C(=O)O)nc1 | inactive

* * *

# assay notes: qHTS Screen of the MIPE 4.0 Collection Against Ewings Sarcoma (TC32) (AID 1259256); further: nearly all actives have a fitted effect of over 45% in size
# test parameters: TC32 Ewing sarcoma viability, CellTiter-Glo, 48 h; series mostly up to 45.8 µM
Results filed as inconclusive are left out. Calls of active or inactive are those of the source. Calls follow the shape of the dose curve; as a rule, active = well fitted inhibition curve with a large enough effect; inconclusive = small, poorly fitted or top-dose-only effect; inactive = no such curve, though single readings can be large or run the other way.
Labels: active, inactive

molecule | group label
CC(C)[C@]12O[C@@H]1[C@@H]1O[C@]13[C@]1(O[C@H]1C[C@@H]1C4=C(CC[C@@]13C)C(=O)OC4)[C@H]2O | inactive
COc1cc2cc(c1Cl)N(C)C(=O)C[C@H](OC(=O)C(C)C)[C@]1(C)O[C@H]1[C@H](C)[C@@H]1C[C@@](O)(NC(=O)O1)[C@H](OC)C=CC=C(C)C2 | inactive
CCCCCC[C@H]1C(=O)O[C@H](C)[C@H](NC(=O)c2cccc(NC=O)c2O)C(=O)O[C@@H](C)[C@@H]1OC(=O)CC(C)C | active
COc1ccc2c(c[n+](C)c3c4cc5c(cc4ccc23)OCO5)c1OC | active
O=C(Oc1ccc([N+](=O)[O-])cc1)N1CCC(C(O)(c2ccc3c(c2)OCO3)c2ccc3c(c2)OCO3)CC1 | inactive
COC[C@H]1OC(=O)c2coc3c2[C@@]1(C)C1=C(C3=O)[C@@H]2CC[C@H](O)[C@@]2(C)C[C@@H]1OC(C)=O | active
O=C(Oc1ccc([N+](=O)[O-])cc1)N1CCN(Cc2cccc(Oc3ccccc3)c2)CC1 | inactive
CCC(=O)OC1CCC2C3CCC4=CC(=O)CC[C@@]4(C)C3CC[C@]12C (stereo partly drawn) | inactive

* * *

# System: CP192
# assay notes: qHTS profiling for inhibitors of Plasmodium falciparum proliferation (AID 504749); further: nearly all actives have a fitted effect of over 60% in size
# test parameters: P. falciparum in erythrocytes, SYBR Green DNA, 72 h; series mostly up to 28.7 µM
Results filed as inconclusive are left out. Calls of active or inactive are those of the source. The call rests on the fitted dose curve; in most records, active means well fitted inhibition curve with a large enough effect; inconclusive means small, poorly fitted or top-dose-only effect; inactive means flat fitted curve, though single readings scatter.
Labels: Yes for active, No for inactive

compound | group label
NC1=NC(=O)N2CC12 (stereo unspecified) | No
COC(=O)c1cncn1C(C)c1ccccc1 (stereo unspecified) | No
c1ccc(C2(c3ccccc3)CC2C2=NCCN2)cc1 (stereo unspecified) | No
CCCCCCCCCC(CC)c1ccc(S(=O)(=O)O)cc1 (stereo unspecified) | No
CC(=O)[O][Hg][c]1ccccc1 | Yes
O=C(O)C(Cl)Cl | No
Cc1cc(O)ccc1Cl | No
CCCN1CCC[C@H](c2cccc(O)c2)C1 | No
CN(C)[C@@H]1C(=O)C(C(N)=O)=C(O)[C@@]2(O)C(=O)C3=C(O)c4c(O)cccc4[C@@](C)(O)[C@H]3[C@H](O)[C@@H]12 | No
CCCCc1ccc(C(=O)O)nc1 | No
O=C(O)COc1ccccc1 | No
C[C@]12CCC(=O)C(O)=C1CC[C@@H]1[C@H]3CCC(=O)[C@@]3(C)CC[C@@H]12 | No
CC[N+]1(CCOC(=O)C(O)(c2ccccc2)c2ccccc2)CCCCC1 | No
Cc1ccc(Cl)c(O)c1 | No
COC(=O)[C@@H](N)CCCN=C(N)N[N+](=O)[O-] | No
C=CCN1CC[C@]23CCCCC2[C@H]1Cc1ccc(O)cc13 (stereo partly specified) | No

* * *

# assay notes: Confirmation and Secondary Assay for Modulators of Hemoglobin Beta Chain Splicing at IVS2 705 locus (AID 930);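 further: HeLa cells stably expressing the EGFP-705 splicing reporter; GFP fluorescence per well restored by corrected splicing of the IVS2-705 intron in EGFP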
# test parameters: HeLa EGFP-705 splicing reporter, GFP fluorescence, 48 h; series mostly up to 46.1 µM
Calls of active or inactive are those of the source. Calls follow the shape of the dose curve; as a rule, active = well fitted activation curve with a large enough effect; inconclusive = small, poorly fitted or top-dose-only effect; inactive = flat fitted curve, though single readings scatter.
reported endpoint: outcome

compound | result
CCC(=O)OC1CCC2C3CCC4=CC(=O)CC[C@@]4(C)C3CC[C@]12C (some centres undefined) | inactive
C#CC1(O)CCC2C3CCC4=CC(=O)CCC4(C)C3CCC21C (centres undefined) | inactive
COc1ccc(C(c2ccc(OC)cc2)C(Cl)(Cl)Cl)cc1 | inactive
O=C1CCCN1CC#CCN1CCCC1 | inactive
O=C(O)CC[N+](=O)[O-] | inactive
CC(=O)[O][Hg][c]1ccccc1 | inactive
COC(C)(C)CCCC(C)C/C=C/C(C)=C/C(=O)OC(C)C (centres undefined) | inactive
Cc1nccc2c1[nH]c1ccccc12 | inactive
NC(N)=NOCCC(N)C(=O)O (centres undefined) | inactive
